Origin of the recorded values: paper PMC11054274

# IC50 per record follows
System: Mycobacterium tuberculosis H37Rv
methodSummary: In vitro activity against Mycobacterium tuberculosis H37Rv, microdilution AlamarBlue broth assay (BacTiter-Glo alternative read-out)
Assay type: cell-based
statedConditions: Mycobacterium tuberculosis; Table S1; Mtb H37Rv; read-out: IC50, antibacterial activity against Mtb H37Rv
reportedMetric: IC50 (µM)

{"compound": "NNC(=O)c1ccncc1 [Isoniazid, reference compound]", "numericValue": 0.18}
{"compound": "COc1ccc2c(c1)[n+]([O-])c(-c1ccc(C)cc1)c(C(=O)O)[n+]2[O-]", "numericValue": 45}
{"compound": "Cc1ccc2c(c1)[n+]([O-])c(-c1ccc(F)cc1)c(C(=O)NCC(=O)O)[n+]2[O-]", "numericValue": 17.2}
{"compound": "COc1ccc2c(c1)[n+]([O-])c(-c1ccc(C(F)(F)F)cc1)c(C(=O)NCC(=O)O)[n+]2[O-]", "numericValue": 16.4}

====

# IC50 per record follows
Test system: Mycobacterium tuberculosis H37Rv
methodSummary: In vitro activity against Mycobacterium tuberculosis H37Rv, microdilution AlamarBlue broth assay (BacTiter-Glo alternative read-out)
Assay type: cell-based
statedConditions: Mycobacterium tuberculosis; Table S1; Mtb H37Rv; read-out: IC50, antibacterial activity against Mtb H37Rv

{"compound": "COc1ccc2c(c1)[n+]([O-])c(-c1ccccc1)c(C(=O)NCC(=O)O)[n+]2[O-] [Compound 5f]", "unitAnnotation": "nM", "IC50": 4280}
{"compound": "NCC[C@H](O)C(=O)N[C@@H]1C[C@H](N)[C@@H](O[C@H]2O[C@H](CN)[C@@H](O)[C@H](O)[C@H]2O)[C@H](O)[C@H]1O[C@H]1O[C@H](CO)[C@@H](O)[C@H](N)[C@H]1O [Amikacin, reference compound]", "unitAnnotation": "nM", "IC50": 70}
{"compound": "COC(=O)CNC(=O)c1c(-c2ccc(C)cc2)[n+]([O-])c2cc(OC)ccc2[n+]1[O-] [Compound 4j]", "unitAnnotation": "nM", "IC50": 12900}
{"compound": "CC[C@@H](CO)NCCN[C@@H](CC)CO [Ethambutol, reference compound]", "unitAnnotation": "nM", "IC50": 1560}

====

System: Mycobacterium tuberculosis H37Rv
methodSummary: In vitro activity against Mycobacterium tuberculosis H37Rv, microdilution AlamarBlue broth assay (BacTiter-Glo alternative read-out)
Assay type: cell-based
statedConditions: Mycobacterium tuberculosis; Table S1; Mtb H37Rv; read-out: IC90, antibacterial activity against Mtb H37Rv
# IC90 per record follows

{"molecule": "COc1ccc2c(c1)[n+]([O-])c(-c1ccccc1)c(C(=O)NCC(=O)O)[n+]2[O-]", "targetOrTestSystem": "Mycobacterium tuberculosis H37Rv", "IC90": "9.86 µM"}
{"molecule": "NNC(=O)c1ccncc1 [Isoniazid, reference compound]", "targetOrTestSystem": "Mycobacterium tuberculosis H37Rv", "IC90": "0.29 µM"}
{"molecule": "COc1ccc2c(c1)[n+]([O-])c(-c1ccc(C(F)(F)F)cc1)c(C(=O)NCC(=O)O)[n+]2[O-]", "targetOrTestSystem": "Mycobacterium tuberculosis H37Rv", "IC90": "22 µM"}
{"molecule": "COC(=O)CNC(=O)c1c(-c2ccc(C)cc2)[n+]([O-])c2cc(OC)ccc2[n+]1[O-]", "targetOrTestSystem": "Mycobacterium tuberculosis H37Rv", "IC90": "24.6 µM"}
{"molecule": "CC[C@@H](CO)NCCN[C@@H](CC)CO [Ethambutol, reference compound]", "targetOrTestSystem": "Mycobacterium tuberculosis H37Rv", "IC90": "32.8 µM"}
{"molecule": "COc1ccc2c(c1)[n+]([O-])c(-c1ccc(C)cc1)c(C(=O)O)[n+]2[O-]", "targetOrTestSystem": "Mycobacterium tuberculosis H37Rv", "IC90": "76.4 µM"}
{"molecule": "NCC[C@H](O)C(=O)N[C@@H]1C[C@H](N)[C@@H](O[C@H]2O[C@H](CN)[C@@H](O)[C@H](O)[C@H]2O)[C@H](O)[C@H]1O[C@H]1O[C@H](CO)[C@@H](O)[C@H](N)[C@H]1O [Amikacin, reference compound]", "targetOrTestSystem": "Mycobacterium tuberculosis H37Rv", "IC90": "0.08 µM"}
{"molecule": "Cc1ccc2c(c1)[n+]([O-])c(-c1ccc(F)cc1)c(C(=O)NCC(=O)O)[n+]2[O-]", "targetOrTestSystem": "Mycobacterium tuberculosis H37Rv", "IC90": "35.1 µM"}
{"molecule": "CCc1nc(N)nc(N)c1-c1ccc(Cl)cc1 [Pyrimethamine, reference compound]", "targetOrTestSystem": "Mycobacterium tuberculosis H37Rv", "IC90": "75 µM"}
{"molecule": "N[C@@H]1CON=C1O [Cycloserine, reference compound]", "targetOrTestSystem": "Mycobacterium tuberculosis H37Rv", "IC90": "13.5 µM"}
